system: Cr. Neoformans 32045; format: cell-based
Where no end group is shown, it is not given here.
Listing: MIC of selected substances

Use these answered entries as a reference point.
>  <substance>
LKLKLKLKLKLKLKLKLKLK [LK (10), LK LK LK LK LK LK LK LK LK LK]

>  <test target>
Cr. Neoformans 32045

>  <MIC>
62 to 125 µg/mL

$$$$
>  <substance>
H-KKAKKKAKKKAKKKAKKKAKKKAKKKAK-OH [KKAK (7), KKAK KKAK KKAK KKAK KKAK KKAK KKAK]

>  <test target>
Cr. Neoformans 32045

>  <MIC>
>63 µg/mL

$$$$
>  <substance>
KFKKFKKFKKFKKFKKFKKFKKFKKFK [KFK (9), KFK KFK KFK KFK KFK KFK KFK KFK KFK]

>  <test target>
Cr. Neoformans 32045

>  <MIC>
62 to 125 µg/mL

$$$$
>  <substance>
KFAKKFAKKFAKKFAK [KFAK (4), KFAK KFAK KFAK KFAK]

>  <test target>
Cr. Neoformans 32045

>  <MIC>
6.0 to 8.0 µg/mL

$$$$
>  <substance>
KFAKKFAKKFAKKFAKKFAK [KFAK (5), KFAK KFAK KFAK KFAK KFAK]

>  <test target>
Cr. Neoformans 32045

>  <MIC>
8 to 16 µg/mL

$$$$
>  <substance>
H-KFKKFKKFKKFKKFKKFKKFKKFK-OH [KFK (8), KEK KFK KFK KFK KFK KFK KFK KFK]

>  <test target>
Cr. Neoformans 32045

>  <MIC>
40 to 62 µg/mL

$$$$

GET /value?item= FKAFKAFKAFKAFKAFKAFKA [FKA (7), FKA FKA FKA FKA FKA FKA FKA] &field=MIC returns 4 to 8 µg/mL

The reported value for H-KFKKFKKFKKFKKFKKFKKFKKFKKFKKFK-OH [KFK (10), KFK KFK KFK KFK KFK KFK KEK KFK KFK KFK] in terms of MIC is 40 to 62 µg/mL

* * *

system: S. aureus (methicillin resistant) ATCC 33591; conditions: ATCC 33591
Where no end group is shown, it is not given here.
measurement name: MIC

>  <substance>
LKKLLKKLLKKLLKKLLKKLLKKLLKKLLKKL [LKKL (8), LKKL LKKL LKKL LKKL LKKL LKKL LKKL LKKL]

>  <measurement name>
MIC

>  <result>
>250 µg/mL

$$$$

Value of measured MIC for the entry RFARRFARRFARRFARRFARRFARRFARRFAR [RFAR (8), RFAR RFAR RFAR RFAR RFAR RFAR RFAR RFAR] : 125 to 250 µg/mL

In plain terms, KFKKFKKFKKFKKFKKFKKFKKFKKFK [KFK (9), KFK KFK KFK KFK KFK KFK KFK KFK KFK] has a documented MIC of 125 to 250 µg/mL

MIC recorded for this substance, FKAFKAFKAFKAFKAFKA [FKA (6), FKA FKA FKA FKA FKA FKA] , is >500 µg/mL

Consider H-LKLKLKLKLKLKLKLK-OH [LK (8), LK LK LK LK LK LK LK LK] . Its measured MIC is 125 to 250 µg/mL
